Source of measurements: patent US7067491B2

# systemUnderTest: porcine pancreas elastase (Sus scrofa, UniProt P00772)
# Sequence (P00772 27-266): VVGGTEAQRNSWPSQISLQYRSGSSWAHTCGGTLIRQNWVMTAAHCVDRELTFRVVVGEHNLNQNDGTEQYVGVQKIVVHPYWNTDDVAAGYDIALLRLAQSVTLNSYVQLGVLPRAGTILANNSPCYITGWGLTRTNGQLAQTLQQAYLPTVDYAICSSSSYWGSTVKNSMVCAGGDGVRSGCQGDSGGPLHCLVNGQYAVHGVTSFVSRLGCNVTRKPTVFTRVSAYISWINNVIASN
pIC50: −log10 of the molar value.

{"columns": ["compound", "pIC50"],
 "data": [
  ["Cc1nnsc1C(=O)N[C@H](C(=O)N1CCC[C@H]1C(=O)N[C@H](C(=O)C(F)(F)F)C(C)C)C(C)C [Example 3]", 6.81]
]}

====

# systemUnderTest: human neutrophil elastase (Homo sapiens)
# Sequence (P08246 30-267): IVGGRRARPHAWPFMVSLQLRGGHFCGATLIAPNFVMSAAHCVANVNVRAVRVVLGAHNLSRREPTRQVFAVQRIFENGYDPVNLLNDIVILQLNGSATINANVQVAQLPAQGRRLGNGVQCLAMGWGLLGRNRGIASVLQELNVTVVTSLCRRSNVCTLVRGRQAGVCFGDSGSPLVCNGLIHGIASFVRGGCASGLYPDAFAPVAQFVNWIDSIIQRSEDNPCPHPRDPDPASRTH
# protocolDescription: Inhibitory activity on human neutrophil elastase (HNE) in vitro
# conditionLabel: human neutrophil elastase 0.2 U/ml, substrate MeO-Suc-Ala-Ala-Pro-Val-pNA 0.5 mM, 37° C., pH 7.5
pIC50: −log10 of the molar value.
Listing of entries alongside the reported pIC50.

{"columns": ["lineNotation", "pIC50"],
 "data": [
  ["Cc1nnsc1C(=O)N[C@H](C(=O)N1CCC[C@H]1C(=O)N[C@H](C(=O)C(F)(F)F)C(C)C)C(C)C", 7.89],
  ["Cc1c(C(=O)N[C@H](C(=O)N2CCC[C@H]2C(=O)N[C@H](C(=O)C(F)(F)F)C(C)C)C(C)C)cnn1-c1cccc(F)c1", 8.09],
  ["CC(C)[C@H](NC(=O)c1ccc2snnc2c1)C(=O)N1CCC[C@H]1C(=O)N[C@H](C(=O)C(F)(F)F)C(C)C", 7.92],
  ["Cc1nocc1C(=O)N[C@H](C(=O)N1CCC[C@H]1C(=O)N[C@H](C(=O)C(F)(F)F)C(C)C)C(C)C", 7.96],
  ["Cc1ccc2onc(C(=O)N[C@H](C(=O)N3CCC[C@H]3C(=O)N[C@H](C(=O)C(F)(F)F)C(C)C)C(C)C)c2c1", 7.92],
  ["COc1cc(C(=O)N[C@H](C(=O)N2CCC[C@H]2C(=O)N[C@H](C(=O)C(F)(F)F)C(C)C)C(C)C)on1", 7.57],
  ["Cc1noc(C)c1C(=O)N[C@H](C(=O)N1CCC[C@H]1C(=O)N[C@H](C(=O)C(F)(F)F)C(C)C)C(C)C", 7.77]
]}

====

Listing of entries alongside the reported IC50.
# systemUnderTest: human neutrophil elastase (Homo sapiens)
# Construct: purchased Elastine Product Co., Inc
# protocolDescription: Inhibitory activity on human neutrophil elastase (HNE) in vitro
# Format: biochemical
# conditionLabel: human neutrophil elastase 0.2 U/ml, substrate MeO-Suc-Ala-Ala-Pro-Val-pNA 0.5 mM, 37° C., pH 7.5
valueType: IC50

{"columns": ["lineNotation", "valueType", "value"],
 "data": [
  ["CC(C)[C@H](NC(=O)c1cnn(-c2ccccc2)c1)C(=O)N1CCC[C@H]1C(=O)N[C@H](C(=O)C(F)(F)F)C(C)C", "IC50", "12 nM"],
  ["Cc1c(C(=O)N[C@H](C(=O)N2CCC[C@H]2C(=O)N[C@H](C(=O)C(F)(F)F)C(C)C)C(C)C)cnn1-c1ccc(C(F)(F)F)cc1", "IC50", "15 nM"],
  ["Cc1c(C(=O)N[C@H](C(=O)N2CCC[C@H]2C(=O)N[C@H](C(=O)C(F)(F)F)C(C)C)C(C)C)cnn1-c1ccccc1", "IC50", "10 nM"]
]}
